Measured values drawn from ChEMBL document CHEMBL3407491 for this set.

What MIC was measured for each of the following?
- Tested on: Escherichia coli
- testName: Antibacterial activity against Escherichia coli ATCC 25922 incubated in dark for 30 mins followed by exposure to light fluences at 650 nm and 6 J/cm2 and then incubated overnight measured after 24 hrs
- Assay type: functional
- reportedConditions: ATCC 25922, light or radiation study
Entry rule: numbers only, all in µM.

So what does the record say about MIC for `NCCCC[C@H](N)C(=O)Nc1ccc(-c2c3nc(c(-c4ccccc4)c4ccc([nH]4)c(-c4ccc(N)cc4)c4nc(c(-c5ccccc5)c5ccc2[nH]5)C=C4)C=C3)cc1` ? 62.5

What value of MIC has been reported for the following compound? `Nc1ccc(-c2c3nc(c(-c4ccccc4)c4ccc([nH]4)c(-c4ccc(N)cc4)c4nc(c(-c5ccccc5)c5ccc2[nH]5)C=C4)C=C3)cc1` 125

# query: MIC of entry `NCCCC[C@H](N)C(=O)Nc1ccc(-c2c3nc(c(-c4ccc(N)cc4)c4ccc([nH]4)c(-c4ccccc4)c4nc(c(-c5ccccc5)c5ccc2[nH]5)C=C4)C=C3)cc1` 62.5

// returns reported MIC for input `NCCCC[C@H](N)C(=O)Nc1ccc(-c2c3nc(c(-c4ccc(NC(=O)[C@@H](N)CCCCN)cc4)c4ccc([nH]4)c(-c4ccc(NC(=O)[C@@H](N)CCCCN)cc4)c4nc(c(-c5ccc(N)cc5)c5ccc2[nH]5)C=C4)C=C3)cc1` 15.6

Item `Nc1ccc(-c2c3nc(c(-c4ccccc4)c4ccc([nH]4)c(-c4ccccc4)c4nc(c(-c5ccccc5)c5ccc2[nH]5)C=C4)C=C3)cc1` has what recorded MIC? 62.5

So what does the record say about MIC for `Nc1ccc(-c2c3nc(c(-c4ccc(N)cc4)c4ccc([nH]4)c(-c4ccc(N)cc4)c4nc(c(-c5ccc(N)cc5)c5ccc2[nH]5)C=C4)C=C3)cc1` ? 125

* * *

- System: Escherichia coli
- testName: Antibacterial activity against Escherichia coli ATCC 25922 incubated in dark for 30 mins followed by exposure to light fluences at 650 nm and 6 J/cm2 and then incubated overnight measured after 24 hrs
- Format: functional
- reportedConditions: ATCC 25922, light or radiation study
propertyName: MIC (µM)
Provide only the numeric value, understood in µM.

Please give the measured MIC for this molecule: `Nc1ccc(-c2c3nc(c(-c4ccc(N)cc4)c4ccc([nH]4)c(-c4ccc(NC(=O)[C@@H](N)Cc5c[nH]cn5)cc4)c4nc(c(-c5ccc(N)cc5)c5ccc2[nH]5)C=C4)C=C3)cc1` 62.5

Which MIC value belongs to `N=C(N)NCCC[C@H](N)C(=O)Nc1ccc(-c2c3nc(c(-c4ccccc4)c4ccc([nH]4)c(-c4ccccc4)c4nc(c(-c5ccccc5)c5ccc2[nH]5)C=C4)C=C3)cc1` ? 62.5

Return reported MIC; argument: `N[C@@H](Cc1c[nH]cn1)C(=O)Nc1ccc(-c2c3nc(c(-c4ccccc4)c4ccc([nH]4)c(-c4ccccc4)c4nc(c(-c5ccccc5)c5ccc2[nH]5)C=C4)C=C3)cc1` 62.5

Given the molecule `NCCCC[C@H](N)C(=O)Nc1ccc(-c2c3nc(c(-c4ccc(N)cc4)c4ccc([nH]4)c(-c4ccc(N)cc4)c4nc(c(-c5ccc(N)cc5)c5ccc2[nH]5)C=C4)C=C3)cc1` , what is its reported MIC? 250
